The measured values listed here are drawn from patent US20220363769A1.

Molecular target: T1, recombinant human IL-7Rα-His6-Fc (human, UniProt P16871 21-239)
T1 construct: also called hIL-7R; not shown: His6 tag; Fc (captured by anti-human IgG Fc)
T1 chain: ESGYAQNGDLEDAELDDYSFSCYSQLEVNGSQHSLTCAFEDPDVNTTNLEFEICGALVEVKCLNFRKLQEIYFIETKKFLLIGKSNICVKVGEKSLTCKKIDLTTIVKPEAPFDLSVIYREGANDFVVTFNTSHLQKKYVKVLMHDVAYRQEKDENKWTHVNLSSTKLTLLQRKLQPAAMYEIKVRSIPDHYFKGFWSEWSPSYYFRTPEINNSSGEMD
Assay: IL-7/IL-7R neutralising ELISA; inhibition of IL-7 binding to IL-7R
value-kind: pEC50
pEC50 field: float, defined as -log10 of concentration (mol/L).

>  <binder>
V7R-2E5 (VHH, llama ICVD, primary clone, expressed in E. coli TG1; not shown: C-terminal FLAG and 6xHis tags from vector pMEK222) VHH: EVQLVESGGGLVQPGGSLRLSCESSISTFSSDAMGWFRQAPGKEREFLAAIGWSGAVTHYSDSVQGRFTISRDNAKNTVYLQMNSLKSEDTGRYYCAEDYDTDVWQYWGQGTQVTVSS

>  <pEC50>
9.19

$$$$

input: Quick one: give measured pEC50 for V7R-4F6 (VHH, llama ICVD, primary clone, expressed in E. coli TG1; not shown: C-terminal FLAG and 6xHis tags from vector pMEK222) VHH: EVQLVESGGGLVQAGGSLRLSCESSISTFGSDAMGWFRQAPGKEREFVAATGWSGAVTHYSDSVKGRFTISRDNAKNTVYLQMNSLKSEDTGTYYCAEDYDTDVWQYWGQGTQVTVSS
output: 9.59

input: Quick one: give measured pEC50 for V7R-2E9 (VHH, llama ICVD, primary clone, expressed in E. coli TG1; parent of the ID-A series; not shown: C-terminal FLAG and 6xHis tags from vector pMEK222) VHH: EVQLVESGGGLVQAGGSLRLSCESSISTFSSDAMGWFRQAPGKEREFLAAIGWSGAVTHYSDSVQGRFTISRDNAKNTVYLQMNSLKSEDTGRYYCAEDYDTDVWQYWGQGTQVTVSS
output: 9.43

input: Quick one: give measured pEC50 for V7R-6C12 (VHH, llama ICVD, primary clone, expressed in E. coli TG1; also called IL-7R-6C12; not shown: C-terminal FLAG and 6xHis tags from vector pMEK222) VHH: EVQLVESGGGLVQAGGSLRLSCESSISTFSSDAMGWFRQAPGKEREFLAAIGWSGAVTHYSDSVKGRFTISRDNAKNTVYLQMNSLKSEDTGRYYCAEDYVTDVWQYWGQGTQVTVSS
output: 9.38
